System: P388 leukemia ip, CD2F1 mice, survival T/C
testDescription: NCI In Vivo Anticancer Drug Screen. Data for tumor model P388 Leukemia (intraperitoneal) in CD2F1 (CDF1) mice
conditionDetails: endpoint: median survival time; dose: 60.0 mg/kg/injection; schedule: Q01DX005 (ip); vehicle: saline with Tween-80; higher = longer survival
Toxic doses and inconclusive results are not listed.
quantityKind: T/C

Answered examples (5):
[
  {
    "compound": "CSc1nc(-c2ccccc2)c(C(=O)NC(C)CN2CCCCC2)s1 (stereo not given)",
    "assayValue": "95 % of control"
  },
  {
    "compound": "Cc1cc(=O)[nH]c2cc3oc4ccccc4c3cc12",
    "assayValue": "98 % of control"
  },
  {
    "compound": "Cc1ccccc1C(C)(O)Cc1nccn1Cc1ccccc1 (stereo not given)",
    "assayValue": "99 % of control"
  },
  {
    "compound": "CN1NC(c2ccccc2)=C(C#N)C(=O)CC1c1ccco1 (stereo not given)",
    "assayValue": "102 % of control"
  },
  {
    "compound": "O=C(CCCl)Nc1ccccc1C(=O)CCc1cn(C(=O)CCCl)c2ccccc12",
    "assayValue": "107 % of control"
  }
]

Items follow; give T/C for each.
1. CC1(C)OC(=O)ON(C(c2ccccc2)c2ccccc2)C1=O
2. Cc1cc(NC(=O)Nc2ccc(F)cc2)no1

1: 101 % of control; 2: 94 % of control

Items follow; give T/C for each.
1. CC(=O)Nc1ccc(/C=C/c2csnn2)cc1
2. CC(C)(C)/[N+]([O-])=C/C=C(/C=[N+](\[O-])C(C)(C)C)S(=O)(=O)c1ccccc1
3. O=C(CCCCCCCCC(=O)NO)NO
4. CC(C)c1cccc(C(C)C)c1N1C(=O)C(=O)C(c2nc3ccccc3s2)C(=O)C1=O
5. CC1=C(/C=C/C(C)=C/C=C/C(C)=C/C=C/C=C(C)/C=C/C=C(\C)C=O)C(C)(C)CCC1
6. O=C(O)/C=C/c1c2ccc(=O)c(O)c-2oc2c(O)c(O)ccc12
7. Cc1cc2[nH]c3c(C#N)c(O)c(C(C)C)c(=O)n3c2cc1C

1. 92 % of control
2. 96 % of control
3. 96 % of control
4. 103 % of control
5. 101 % of control
6. 93 % of control
7. 103 % of control

Items follow; give T/C for each.
1. CSc1nc(N)n2nc(C)cc2n1
2. CN(C)c1ccc(/C=N/NC(=O)COc2ccccc2)cc1
3. COC(=O)CC1C(C)(C)C(=O)C2CC3=C4CC(=O)OC(c5ccoc5)C4(C)CCC3C1(C)C2=O (stereo not given)

100 % of control
88 % of control
97 % of control

Items follow; give T/C for each.
1. COC(=O)c1nnn(-c2ccc(S(N)(=O)=O)cc2)c1C(=O)c1ccc(OC)cc1
2. O=C(NC(Cc1c[nH]c2ccccc12)C(=O)O)C(=O)c1c[nH]c2ccccc12 (stereo not given)
3. O=C(Nc1ccccc1)N1CCOCC1
4. O=C(c1ccccc1)C1Nc2ccc(Cl)cc2C2C=CCC12 (stereo not given)
5. COc1ccc2c(c1)OC(C)(C)[C@H](c1ccc(O)cc1)[C@@H]2c1ccccc1
6. COc1ccc(CN2C(=O)C(Cl)=C(Cl)C2=O)c(OC)c1
7. S=C(S)N(Cc1ccccc1)Cc1ccccc1 (tested in a mixture with another compound)
8. c1ccc(-c2n[nH]c(-c3[nH]nc(-c4ccccc4)c3-c3ccccc3)c2-c2ccccc2)cc1

["100 % of control", "100 % of control", "106 % of control", "102 % of control", "90 % of control", "100 % of control", "105 % of control", "100 % of control"]

Items follow; give T/C for each.
1. O=C(Nc1cc(-c2ccccc2)[nH]n1)c1ccc(Cl)cc1
2. COc1ccccc1C(Nc1nncs1)Nc1nncs1
3. CCC1COS(=O)(=O)CS(=O)(=O)O1 (stereo not given)
4. CC(C)(C#N)OC(=O)Nc1c(Cl)cccc1Cl
5. C[CH2][Sn]([CH2]C)([O][P+](=O)C[Si](C)(C)c1ccccc1)[O][P+](=O)C[Si](C)(C)c1ccccc1 (stereo not given)
6. Cc1cc2cc3n(c2nn1)N=C(Cl)CC3
7. COc1ccc2c(c1)C(O)(CN)CCCCC(OC)CCCC2 (stereo not given)
8. Nc1[nH]c(=S)ncc1-c1ccc(Cl)c(Cl)c1

1: 102 % of control; 2: 106 % of control; 3: 101 % of control; 4: 100 % of control; 5: 153 % of control; 6: 86 % of control; 7: 101 % of control; 8: 94 % of control

Items follow; give T/C for each.
1. COc1ccc(NC(=O)C/C(C)=C2/C(=O)NN(c3ccccc3)C2=O)cc1
2. COc1cc(O)c(O)c(C(C)(C)C)c1
3. COC(=O)C1=C(C(=O)OC)C2OC1c1cc3ccccc3cc12
4. COc1nc(NC2OC(CO)C(O)C2O)cc(=O)n1C (stereo not given)
5. O=C1CSC(c2ccc(O)cc2)N1c1nncs1 (stereo not given)

104 % of control
107 % of control
97 % of control
93 % of control
107 % of control

Items follow; give T/C for each.
1. CN1C(=O)OC2OC(C)(c3ccc(S(=O)(=O)c4ccccc4)cc3)C(=O)CC21 (stereo not given)
2. CC1(c2ccccc2)CCC(=O)NC1=O (stereo not given)
3. CCOC(=O)c1cn(CC)c2cc(-n3cccc3)c(F)cc2c1=O
4. CC1CC(=O)Nc2ncnc(N)c21 (stereo not given)
5. COC(=O)c1cc(Cl)ccc1OCC(O)CNc1ccc(Cl)cc1C(=O)c1ccccc1 (stereo not given)
6. COc1cc(C2C(C)=COc3cc4c(cc32)OCO4)cc(OC)c1OC (stereo not given)
7. O=C(NC(=S)Nc1cccc2c(O)cccc12)c1cccc(Br)c1

100 % of control
102 % of control
98 % of control
98 % of control
92 % of control
93 % of control
91 % of control

---

What T/C was measured for each of the following?
Test system: P388 leukemia ip, CD2F1 mice, survival T/C
testDescription: NCI In Vivo Anticancer Drug Screen. Data for tumor model P388 Leukemia (intraperitoneal) in CD2F1 (CDF1) mice
conditionDetails: endpoint: median survival time; dose: 120.0 mg/kg/injection; schedule: Q01DX005 (ip); vehicle: saline with Tween-80; higher = longer survival
Inconclusive results and toxic doses are left out.

Items follow; give T/C for each.
1. O=C(Nc1ccc(CCO)cc1)Nc1cc(C(F)(F)F)ccc1Cl
2. CCC1(C)CC(C#N)(C#N)C(=O)NC1=O (centres undefined)
3. CC(C)c1cccc(C(C)C)c1N1C(=O)C(=O)C(c2nc3ccccc3s2)C(=O)C1=O
4. CCCN1C(=O)CC(c2ccc(OC)c(OC)c2)C1=O (centres undefined)

1: 90 % of control; 2: 97 % of control; 3: 102 % of control; 4: 90 % of control

---

Test system: P388 leukemia ip, CD2F1 mice, survival T/C
testDescription: NCI In Vivo Anticancer Drug Screen. Data for tumor model P388 Leukemia (intraperitoneal) in CD2F1 (CDF1) mice
conditionDetails: endpoint: median survival time; dose: 240.0 mg/kg/injection; schedule: Q01DX005 (ip); vehicle: saline with Tween-80; higher = longer survival
Method: The antitumor activity of compounds was measured in mice bearing transplantable tumors. Survival or tumor size were measured and the results are expressed as the measurement made in the treated group (T) divided by the measurement made in the vehicle treated control group (C). The tumor model used in this assay is P388 Leukemia (intraperitoneal) in CD2F1 (CDF1) mice
Toxic doses and inconclusive results are not listed.
quantityKind: T/C

[
  {
    "compound": "O=C(Nc1ccccc1)N1CCOCC1",
    "assayValue": "95 % of control"
  },
  {
    "compound": "Nc1nc(N)c2nc3c(ccc4ccccc43)nc2n1",
    "assayValue": "104 % of control"
  },
  {
    "compound": "CC(=O)OCC1CC2COCC2CC1COC(C)=O (centres undefined)",
    "assayValue": "102 % of control"
  }
]

Kindly consider the entry below.
Quick one: give measured T/C for COc1ccc(C(CC(C)=O)c2cc3c(cc2OC(C)=O)OCO3)cc1 (centres undefined) 99 % of control

---

System: P388 leukemia ip, CD2F1 mice, survival T/C
testDescription: NCI In Vivo Anticancer Drug Screen. Data for tumor model P388 Leukemia (intraperitoneal) in CD2F1 (CDF1) mice
conditionDetails: endpoint: median survival time; dose: 400.0 mg/kg/injection; schedule: Q04DX003 (ip); vehicle: saline with Tween-80; higher = longer survival
Toxic doses and inconclusive results are not listed.
quantityKind: T/C

[
  {
    "molecule": "COC(=O)C12CCc3cc(OC)ccc3C1=CC(=O)C2 (configuration not stated)",
    "T/C": "100 % of control"
  },
  {
    "molecule": "CCOC(=O)C(C)(C)CN(CC(C)(C)C(=O)OCC)C(C)(C)C",
    "T/C": "122 % of control"
  },
  {
    "molecule": "Cc1cc(C)nc(NCCCCCCNc2nc(C)cc(C)n2)n1",
    "T/C": "92 % of control"
  },
  {
    "molecule": "CCCCOc1cc([N+](=O)[O-])ccc1CO",
    "T/C": "95 % of control"
  }
]

Items follow; give T/C for each.
1. CCCCCCCCCC(C)(O)C#CC(C)(O)CCCCCCCCC (configuration not stated)
2. O=S1(=O)CC2(N3CCOCC3)CCCCCC21 (configuration not stated)
3. C1=CC2C3CCC(C3)C2C1 (configuration not stated)

1. 86 % of control
2. 100 % of control
3. 104 % of control

This collection of values is drawn from PubChem BioAssay AID330.
